I'd appreciate it if you could supply inhibition values for the items below.
Assay: VP16 transactivation inhibitors, counter-screen for SRC1 inhibitor project, cell-based, luminescence, high throughput (AID 588824)
Settings: cell-based VP16 transactivation luciferase luminescence; at 3.6 µM; active compounds read high
Expressed in %, but write only the number.

Task: Identify the reported inhibition for the following entry. CNc1ccc2nc3ccccc3[n+](C)c2c1
Output: 3.25

Task: Note inhibition for the compound shown: CC1=C(N2CC2)C(=O)C(CO)=C(N2CC2)C1=O
Output: 93

Task: Identify inhibition associated with the compound O=C1NC2C(=CC(O)C(O)C2O)c2cc3c(c(O)c21)OCO3 (centres undefined)
Output: 94.7

Task: Note inhibition for the compound shown: Cc1cc(-c2ccccc2)cc(-c2ccccc2)[n+]1CCc1ccccc1
Output: 51.7

Task: Could you please provide reported inhibition for CC(C)CC(NC(=O)CCCNC(=O)CCC(=O)OC1O[C@H]2OC3(C)CC[C@H]4[C@H](C)CCC(C1C)C24OO3)C(=O)O (some centres undefined) ? Thanks!
Output: 76.9

Task: Give the reported value of inhibition for this record: O=c1[nH]c2ccccc2n1C1CCN(C(c2cccc3ccccc23)c2nnnn2Cc2ccccc2)CC1 (centres undefined)
Output: -4.89

Task: Please list inhibition recorded for the compound C[C@H]1CCC[C@@H](O)CCC/C=C/c2cc(O)cc(O)c2C(=O)O1
Output: 56.1

Task: Please supply the value of reported inhibition for the item COC(=O)C12OCC34C(CC5C(C)=C(O)C(=O)CC5(C)C3C(O)C1O)OC(=O)C(OC(=O)/C=C(\C)C(C)C)C24 (centres undefined)
Output: 97.7

Task: Look up and report measured inhibition for this entry: CC12CCC3C(CCC4(O)CC(O)CCC34C=NO)C1(O)CCC2C1=COC(=O)C1 (centres undefined)
Output: 82.2
